System: HaCat
experiment.summary: Cytotoxic Profiling of Annotated Libraries Using Quantitative High-Throughput Screening (AID 1296008); further: nearly all actives have a fitted effect of over 60% in size
test.conditions: Five cell lines viability, CellTiter-Glo ATP luminescence, 48-72 h
Records with an inconclusive call do not appear. Activity calls are given as the source filed them. The call rests on the fitted dose curve; in most records, active means well fitted inhibition curve with a large enough effect; inconclusive means small, poorly fitted or top-dose-only effect; inactive means flat fitted curve, though single readings scatter. Where a SMILES comes first, the peptide text is derived from it.
measurement.name: outcome

Consider the worked cases shown below.
{"columns": ["compound", "outcome"],
 "data": [
  ["NC1Nc2ccccc2C1(N)CC1NC(=O)C(Cc2ccccc2)NC(=O)C(Cc2ccccc2)NC1=O (stereo not drawn)", "inactive"],
  ["COC(=O)c1ccccc1O[C@@H]1O[C@H](CO[C@@H]2OC[C@@H](O)[C@H](O)[C@H]2O)[C@@H](O)[C@H](O)[C@H]1O", "inactive"],
  ["C[C@]1(O)CC[C@@H]2C(C(=O)O)=CO[C@@H](O[C@@H]3O[C@H](COC(=O)/C=C/c4ccc(O)c(O)c4)[C@@H](O)[C@H](O)[C@H]3O)[C@@H]21", "inactive"],
  ["C/C=C/C=C/C1=C2C(=O)C3(C)C4C(C(=O)CC(O)/C=C/C)=C(O1)C1(C)C2C2(C)OC1(O)C4(C)OC23O (stereo not drawn)", "inactive"],
  ["COc1ccccc1N1CCN(CCCCNC(=O)c2ccc(-c3cscn3)cc2)CC1", "inactive"],
  ["COc1ccc(C(=O)OC2C3C=COC(OC4OC(CO)C(O)C(O)C4O)C3C3(CO)OC23)cc1OC (stereo not drawn)", "inactive"],
  ["CC1(C)COC(=O)[C@@H]1O[C@@H]1O[C@H](CO)[C@@H](O)[C@H](O)[C@H]1O", "inactive"],
  ["CC1=CCC(O)C2(C)CCC3C(C)C(=O)OC3C12 (stereo not drawn)", "inactive"],
  ["CC(=O)OCC1OC(O[C@H]2CC[C@@]3(C)C(CC[C@]4(C)C3CC=C3[C@@H]5CC(C)(C)CC[C@]5(C(=O)O)CC[C@]34C)[C@]2(C)CO)C(O)C(O)C1OC1OC(C)C(O)C(OC2OCC(O)C(O)C2O)C1O (stereo partly drawn)", "inactive"],
  ["C=C1CCC2C(C)(C)CC(=O)CC2(C)C1CCC(C)CCO (stereo not drawn)", "inactive"]
]}

With those in mind, consider the next compound.
Query :: Could you tell me which outcome is on file for CSCC[C@H](NC(=O)[C@H](CO)NC(=O)[C@H](CCC(=O)O)NC(C)=O)C(=O)N[C@H](C=O)CC(=O)O (Ac-ESMD-aldehyde) ?
Result :: inactive
